The reported numbers originate from PubChem BioAssay (NCI).

test system: HOP-62 NSCLC; experiment: NCI tumour cell line growth inhibition, 48 h
parameter: TGI (µM)
All answers are understood in µM, so give the number only.

Examples with answers:
C[C@@H]1COCCN1c1cc(-c2ccnn2C)c2ccnc(-c3ccn[nH]3)c2n1 = 1.94
O=c1[nH]c2cc3cccnc3c(Cl)c2nc1CBr = 29.4
CC1(C)CCCCCCCCCC(C)(CCCCCCCCCCCCO)C1=O (stereo not drawn) = 47.5
O=C(Nc1cnc(C(F)(F)F)cn1)c1cc(Cl)ccc1O = 2.35
COc1nc(OC)nc(-c2cccc(F)c2)n1 = 45.7
CCN(CC)CCC(CNc1c(C)cnc2cc(Cl)ccc12)c1ccc(Cl)cc1 (stereo not drawn) = 23.8
COc1ccc(Cc2nc3ccccc3s2)cc1OC = 93.5
Nc1ccc(-c2nc3ccc(F)cc3s2)cc1 = 90.8
Cc1cc(C)c2c(=N)c3ccccc3n(CCCCCCO)c2n1 = 23.6

# TGI lookup, item Cc1cc(O)ccc1C1(c2ccc(F)cc2)OC(=O)c2ccccc21 (stereo not drawn)
19.7

* * *

tested on: A498 renal; experiment: NCI tumour cell line growth inhibition, 48 h
parameter: TGI

Cc1cc(O)ccc1C1(c2ccc(F)cc2)OC(=O)c2ccccc21 (stereo not drawn) = 32.9 µM

Requested read-out TGI, target or system A498 renal, entry CC(=O)O[C@H]1CN(S(=O)(=O)c2ccc(C)cc2)C[C@@H]1C1CCCCC1
> 100 µM

Requested read-out TGI, target or system A498 renal, entry CC1=NN(C(=O)c2ccc(Cl)cc2)C(=O)/C1=C/c1ccc(Cl)cc1
> 100 µM

* * *

tested on: K-562 leukemia; test: NCI tumour cell line growth inhibition, 48 h; in the data active means GI50 below about 0.43 µM; inactive means the rest
Field 'call' accepts active, inactive

For orientation, consider the following solved cases.
Nc1ncccc1-c1nc2ccc(-c3ccccc3)nc2n1-c1ccc(C2(N)CCC2)cc1 = inactive
O=C(Nc1ccccc1Cl)c1cccc(NC2=C(Cl)C(=O)N(Cc3ccccc3)C2=O)c1 = inactive
C=C1CC[C@@H]2[C@](C)(COC(C)=O)[C@H](OC(C)=O)CC[C@@]2(C)[C@@H]1CC(Nc1ccc(S(=O)(=O)Nc2nccs2)cc1)C1=CCOC1=O (stereo not given in full) = inactive
CC1=C(C(=O)Nc2ccc(F)c(Cl)c2)C(c2ccccc2O)NC(=O)N1 (stereo not given) = inactive
CCC[CH2][Sn]([CH2]CCC)([O]C(=O)/C=C/c1ccccc1F)[O]C(=O)/C=C/c1ccccc1F = active

Outcome? CN1CCN(c2cc3nc4ccccc4n(-c4ccc(Cl)cc4)c-3cc2=N)CC1
active

Outcome? O=C1/C(=C/c2cccc(Br)c2)COc2ccc(O)c(O)c21
active

* * *

Below is a list of entries, each paired with its recorded log10 of TGI value.
test system: SK-MEL-5 melanoma; test: NCI tumour cell line growth inhibition, 48 h
Recorded TGI (log10, µM)

Brc1cccc(-c2cc(-c3ccc4nccnc4c3)[nH]n2)c1 = 1.07
Nc1ccc(-c2nc3ccc(F)cc3s2)cc1 = 1.58

# log10 of TGI lookup, item Oc1c(Cl)cc(Cl)c2cccnc12
0.56

# log10 of TGI lookup, item CC(=O)O.CC(=O)O.CC(=O)O.CC(=O)O.[Rh].[Rh]
1.57

# log10 of TGI lookup, item Cc1c2ccncc2c(C)c2c1c1cc(CO)ccc1n2C
0.43

* * *

tested on: OVCAR-8 ovarian; assay: NCI tumour cell line growth inhibition, 48 h
Short version: TGI at least 9 µM is True, less is False.

O=[N+]([O-])c1ccc2c(Nc3ccccc3-c3ccccc3Nc3c4ccccc4nc4cc([N+](=O)[O-])ccc34)c3ccccc3nc2c1 = True
COc1ccc(/C(=N/Nc2nc3ccccc3[nH]2)C(=O)O)cc1 = True
Oc1ccc(Cl)cc1C1=N/C(=N\C/N=C2\N=C(c3cc(Cl)ccc3O)CC(c3ccccc3)N2)NC(c2ccccc2)C1 (stereo not given) = True
O=C(N/N=C/c1ccc(Cl)cc1)c1cc(I)cc(I)c1O = True

I'd appreciate it if you could say whether CCN(CC)C(=O)COc1cc2c(O)c3c(O)c(C)c4c(c13)C(=O)C(C)(OC=CC(OC)C(C)C(OC(C)=O)C(C)C(O)C(C)C(O)C(C)C=CC=C(C)C(=O)N2)O4 (stereo not given) has TGI at least equal to 9 µM.
True

I'd appreciate it if you could say whether COc1cc(/C=C/[N+](=O)[O-])cc(OC)c1OC has TGI at least equal to 9 µM.
True

I'd appreciate it if you could say whether O=C1NC2CCCCC2N=C1/C(C(=O)c1ccccc1)=C(\O)c1ccccc1 (stereo not given) has TGI at least equal to 9 µM.
True

I'd appreciate it if you could say whether C=C1C(=O)O[C@H]2[C@H]1CC/C(CNC(=O)/C=C/c1ccccc1)=C\CC[C@@]1(C)O[C@@H]21 has TGI at least equal to 9 µM.
True

I'd appreciate it if you could say whether N.N.N.N.N.O=S(=O)([O-])C(F)(F)F.O=S(=O)([O-])C(F)(F)F.[Os+8] has TGI at least equal to 9 µM.
True

I'd appreciate it if you could say whether Cn1c2c(c3ccccc31)CCN1C(=O)C3SC21C1C(=O)N(c2ccccc2)C(=O)C31 (stereo not given) has TGI at least equal to 9 µM.
True

I'd appreciate it if you could say whether COC(=O)C1=C(C)N(NC(=O)c2ccccc2)C2(O)CCCC(=O)C12C (stereo not given) has TGI at least equal to 9 µM.
True

I'd appreciate it if you could say whether OCc1ccc(N2CCCC2)cc1Cl has TGI at least equal to 9 µM.
True

I'd appreciate it if you could say whether CC1C2CC(C/C2=N/O)C1(C)C (stereo not given) has TGI at least equal to 9 µM.
True

I'd appreciate it if you could say whether Nc1ncccc1-c1nc2ccc(-c3ccccc3)nc2n1-c1ccc(C2(N)CCC2)cc1 has TGI at least equal to 9 µM.
False

I'd appreciate it if you could say whether C=CCCCOC1[C@H](OCc2ccccc2)C(OCc2ccccc2)C(OC)O[C@@H]1CNC(=O)c1cccc(I)c1 (stereo not given in full) has TGI at least equal to 9 µM.
True

I'd appreciate it if you could say whether N/C(=N\c1nc2ccccc2s1)NC(=NC1CCCCC1)NC1CCCCC1 has TGI at least equal to 9 µM.
False

I'd appreciate it if you could say whether CCOC(=O)C(NC(=O)CC)(Nc1ccc(S(=O)(=O)Nc2nc(C)cc(C)n2)cc1)C(F)(F)F (stereo not given) has TGI at least equal to 9 µM.
True

I'd appreciate it if you could say whether CC(C)(C)c1cc(C(=O)/C=C/c2ccn[nH]2)cc(C(C)(C)C)c1O has TGI at least equal to 9 µM.
False

I'd appreciate it if you could say whether COc1cc(C(c2cccc3ccccc23)N2C(=O)CCC2C(=O)NCc2ccccc2)cc(OC)c1OC (stereo not given) has TGI at least equal to 9 µM.
True

I'd appreciate it if you could say whether CCCCc1ccc(-n2sc3ncccc3c2=O)cc1 has TGI at least equal to 9 µM.
True

I'd appreciate it if you could say whether COc1cccc(C2C(C#N)=C(N)Oc3c2ccc2ccccc32)c1 (stereo not given) has TGI at least equal to 9 µM.
True

* * *

system: CCRF-CEM leukemia; assay: NCI tumour cell line growth inhibition, 48 h
Below is a list of entries, each paired with its recorded TGI value.

CCNc1ncnc2c1nnn2CC = > 100 µM

# TGI lookup, item Cc1cc(C)nc(NS(=O)(=O)c2ccc(NC(=O)c3cccn4c(=O)c5ccccc5nc34)cc2)n1
> 100 µM

# TGI lookup, item Cc1cc(O)ccc1C1(c2ccc(F)cc2)OC(=O)c2ccccc21 (centres undefined)
> 95.5 µM

# TGI lookup, item CCN(C(=O)CN1CCN(c2cc3c(cc2F)c(=O)c(C(=O)O)cn3CC)CC1)c1nc(-c2ccccc2)cs1
> 100 µM

# TGI lookup, item N#CC1(c2ccccc2)CCN(C2(c3ccccc3)CCCCC2)CC1
> 100 µM

# TGI lookup, item O=C1c2ccccc2C(=O)N1C1(C(=O)NC2(C(=O)O)CCCC2)CCCC1
> 100 µM

* * *

test system: IGROV1 ovarian; assay: NCI tumour cell line growth inhibition, 48 h
Short version: TGI at least 20 µM is yes (1), less is no (0).

Nc1ccc(-c2nc3ccc(F)cc3s2)cc1 = yes (1)

I'd appreciate it if you could say whether CCOP(=O)(OCC)C1(O)CC(n2cc(C)c(=O)[nH]c2=O)OC1CO (stereo unspecified) has TGI at least equal to 20 µM.
yes (1)

I'd appreciate it if you could say whether OC(CCN1CCN(CCOC(c2ccccc2)c2ccccc2)CC1)c1ccc(Br)cc1 (stereo unspecified) has TGI at least equal to 20 µM.
yes (1)

I'd appreciate it if you could say whether N=C(N)SCCCN has TGI at least equal to 20 µM.
no (0)

I'd appreciate it if you could say whether COc1ccc2c(c1)C(=O)c1c-2n(CCCN)c(=O)c2cc([N+](=O)[O-])ccc12 has TGI at least equal to 20 µM.
no (0)

I'd appreciate it if you could say whether CC(=O)CC(C)(C)NC(=O)[C@@]1(O)CC[C@H]2[C@@H]3CCC4=CC(=O)CC[C@@H]4[C@H]3CC[C@@]21C has TGI at least equal to 20 µM.
yes (1)

I'd appreciate it if you could say whether CCC1C(=O)OCc2c1cc1n(c2=O)C(CC)c2c-1nc1ccccc1c2Cl (stereo unspecified) has TGI at least equal to 20 µM.
yes (1)
